Papp A→B at 2 h overview
- TARGET ENTITY: P-gp (Homo sapiens)
- Sequence (P08183 whole entry): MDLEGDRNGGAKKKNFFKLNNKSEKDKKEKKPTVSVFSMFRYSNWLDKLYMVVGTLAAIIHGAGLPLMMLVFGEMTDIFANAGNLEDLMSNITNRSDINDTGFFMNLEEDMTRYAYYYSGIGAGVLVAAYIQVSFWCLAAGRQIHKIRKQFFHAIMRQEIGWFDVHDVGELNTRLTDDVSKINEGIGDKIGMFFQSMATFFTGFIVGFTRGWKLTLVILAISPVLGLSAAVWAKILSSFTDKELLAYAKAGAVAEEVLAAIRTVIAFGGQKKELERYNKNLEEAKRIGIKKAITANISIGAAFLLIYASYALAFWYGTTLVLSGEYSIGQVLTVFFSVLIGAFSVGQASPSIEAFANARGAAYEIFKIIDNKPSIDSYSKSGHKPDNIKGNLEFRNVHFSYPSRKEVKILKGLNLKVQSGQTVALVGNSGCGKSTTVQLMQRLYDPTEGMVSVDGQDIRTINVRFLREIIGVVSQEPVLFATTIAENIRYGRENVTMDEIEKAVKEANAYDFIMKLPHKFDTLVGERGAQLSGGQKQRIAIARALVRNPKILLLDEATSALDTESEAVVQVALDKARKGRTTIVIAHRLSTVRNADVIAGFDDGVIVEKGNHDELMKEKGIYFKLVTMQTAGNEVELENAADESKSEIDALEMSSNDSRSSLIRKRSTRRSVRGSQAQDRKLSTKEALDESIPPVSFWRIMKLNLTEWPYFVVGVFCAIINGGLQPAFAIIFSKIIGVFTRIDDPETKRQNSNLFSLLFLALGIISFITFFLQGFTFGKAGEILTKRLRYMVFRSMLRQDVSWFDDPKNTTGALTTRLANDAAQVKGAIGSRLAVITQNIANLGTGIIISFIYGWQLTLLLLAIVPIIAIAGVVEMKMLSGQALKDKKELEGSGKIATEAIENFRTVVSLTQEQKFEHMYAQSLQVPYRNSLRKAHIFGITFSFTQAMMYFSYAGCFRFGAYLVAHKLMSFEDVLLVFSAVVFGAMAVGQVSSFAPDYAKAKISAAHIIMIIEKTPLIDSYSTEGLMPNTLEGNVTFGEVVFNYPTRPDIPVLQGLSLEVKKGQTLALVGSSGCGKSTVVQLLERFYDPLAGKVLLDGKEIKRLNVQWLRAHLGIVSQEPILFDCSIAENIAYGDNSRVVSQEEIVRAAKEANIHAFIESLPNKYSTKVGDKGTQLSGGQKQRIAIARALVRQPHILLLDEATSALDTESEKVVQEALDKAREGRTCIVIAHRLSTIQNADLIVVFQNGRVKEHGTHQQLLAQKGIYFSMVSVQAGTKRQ
- ASSAY OVERVIEW: in vitro
- TEST CONDITIONS: MDCK-MDR1, pH 7.4
Field: numeric (×10⁻⁶ cm/s). Do not append units.

Would you please look over these solved cases?
In [3]: df
Out[3]:
                                   compound  readout_unit  result
0  CNc1nc(NC2CCN(Cc3ccc4c(cc(C#N)n4C[C@H](C)N4CCN(S(C)(=O)=O)CC4)c3C)CC2)c2cc(CC(F)(F)F)sc2n1 [Compound I]    ×10⁻⁶ cm/s   0.308
1  CN(C)C(=O)C(CCN1CCC(O)(c2ccc(Cl)cc2)CC1)(c1ccccc1)c1ccccc1 [Loperamide]    ×10⁻⁶ cm/s   0.792
2  CNC(=C[N+](=O)[O-])NCCSCc1ccc(CN(C)C)o1 [Ranitidine]    ×10⁻⁶ cm/s  0.0514

Here is the next item to consider.
Data request: Consider the compound CC(=O)CC(c1ccccc1)c1c(O)c2ccccc2oc1=O (stereo not shown) [Warfarin] and give its measured Papp A→B at 2 h.
Data returned: 21.5

Taken from patent US20250152591A1.
